Measured TGI, listed per entry for reference.
- Test system: HCC-2998 colon
- Measurement Protocol: NCI tumour cell line growth inhibition, 48 h

Consider the following illustrative entries.
O=C(NCc1ccc(S(=O)(=O)c2cc(F)cc(F)c2)cc1)c1ccc2nccn2c1 : > 100 µM
COc1cc(C=C2C(=O)NC(=S)NC2=O)cc(OC)c1OC : > 100 µM
Cc1cn2c(C)csc2c1P(=O)(OC(C)C)OC(C)C : > 100 µM
CCc1nc2cc3cccnc3c(Cl)c2[nH]c1=O : > 100 µM
CC1=C(C(=O)NNS(=O)(=O)c2ccc(C)cc2)CC(C(=O)NNS(=O)(=O)c2ccc(C)cc2)=C(C)N1 : > 100 µM

Lab note: `COc1cc(CNc2nc3cc(C(F)(F)F)ccc3nc2-c2ccccc2)cc(OC)c1OC` gave TGI of 52.4 µM

# TGI (compound: `CN1CCN(c2ccc(Nc3ncc4cc(C#N)c(=O)n(C5CCCC5)c4n3)cc2)CC1` ) is > 100 µM

Measured TGI of `COc1cc(OCc2ccc3nc(OC)c(OC)nc3c2)cc(OC)c1OC` : > 10 µM

Measured TGI of C=CCN1CC2CON(C(=O)C(OC)(c3ccccc3)C(F)(F)F)C2C1C(C)C (stereo not given) : 38.8 µg/mL

Given item `CCN(CC)CCNC(=O)c1ccc(C)c(OCc2ccccc2)c1[N+](=O)[O-]` , the value recorded as its TGI is > 69.1 µM

* * *

- Test system: PC-3 prostate
- Measurement Protocol: NCI tumour cell line growth inhibition, 48 h
Test Readout: TGI

Look over these answered cases.
CCN(CC)c1cc2oc3cc(N)cc(=N)c-3nc2cc1C : > 100 µM
CCN(CC)CCNC(=O)c1ccc(C)c(OCc2ccccc2)c1[N+](=O)[O-] : > 100 µM
OC1(c2ccc(Cl)cc2)c2ccc(CN3CCCC3)cc2C2=NCCN21 (centres undefined) : 27.2 µM

Now turn to the next compound.
Looking up `COc1cc([C@@H]2c3cc4c(cc3[C@@H](c3c(O)cc(O)c5c3O[C@H](c3ccc(O)c(O)c3)[C@@H](O)C5)[C@H]3COC(=O)[C@H]23)OCO4)cc(OC)c1O` , I found its TGI recorded as > 100 µM

* * *

- Test system: U251 CNS
- Measurement Protocol: NCI tumour cell line growth inhibition, 48 h
As shown below, each of these compounds has a reported TGI value.
Kindly provide the numeric value in µM only, without the unit symbol.

Reference set, count: 2
COC(=O)C1=C(C)NC(C)=C([N+](=O)[O-])C1c1cccc(N=O)c1 (stereo unspecified) : 32
Cc1c2ccncc2c(C)c2c1[nH]c1ccccc12 : 2.08

Consider the record given below.
Please fill in: TGI reported for `COC1=C(Br)C(=O)c2nc(C)ccc2C1=O` = 28.5

* * *

- Tested on: MOLT-4 leukemia
- Measurement Protocol: NCI tumour cell line growth inhibition, 48 h
TGI reference
Return type: number; implicit unit µM.

CC(C)C1=C2CCC3(C)C(CCC4C5C6OCC5(CCC6(C)C)CCC43C)C2(C)CC1 (stereo not given) : 34.6
CN(C)CCSc1nccc(-c2cc3ccccc3s2)n1 : 66.1

Field: next molecule
According to the records, this molecule `CCN(CC)CCNC(=O)c1ccc(C)c(OCc2ccccc2)c1[N+](=O)[O-]` displays TGI of 77.8

* * *

- Tested on: SW-620 colon
- Measurement Protocol: NCI tumour cell line growth inhibition, 48 h
Catalogue of TGI readings, one per entry.

Worked examples, 3 compounds total:
CC1(C)OC2CC(=O)OCC23C1CC(=O)C1(C)C3CCC2(C)C(c3ccoc3)OC(=O)C3OC321 (stereo not given) : > 125 µM
COc1cc(C2C(C(=O)Nc3cc(F)c(F)cc3F)=C(C)NC(C)=C2C(=O)Nc2cc(F)c(F)cc2F)ccc1O : > 100 µM
Cc1cccc(N=C2NC(=O)C(CC(=O)Nc3cccc(C)c3C)S2)c1 (stereo not given) : > 100 µM

# TGI measured on SW-620 colon for item `COC(=O)c1cccc2cccc(C(=O)Nc3ccc(Cl)cc3)c12` = > 66.8 µM

Reported TGI (SW-620 colon) for entry `COc1ccc2c(Oc3ccc(NC(=O)c4c(C)n(CC(C)(C)O)n(-c5ccccc5)c4=O)nc3)ccnc2c1` is > 100 µM

* * *

- Test system: RXF 393 renal
- Measurement Protocol: NCI tumour cell line growth inhibition, 48 h
As shown below, each of these compounds has a reported log10 of TGI value.
// units: µM (pre-log); metric: TGI; scale: log10

C/C(=N\NC(=S)N1CC2CCC(CC2)C1)c1ccccn1 : 0.11
CC/C(Cl)=N\OC(=O)Nc1ccc(F)c([N+](=O)[O-])c1 : 1.48
CC/C=C/C/C=C/C/C=C/C/C=C/C/C=C/C/C=C/CCC(=O)Nc1ccn([C@@H]2O[C@H](CO)[C@@H](O)C2(F)F)c(=O)n1 : 1.26
O=C(CSC(c1ccccc1)c1ccccc1)N/N=C/c1ccco1 : 0.52
O=C(Nc1ccc(Cl)c(Cl)c1)Nc1ccccc1O : 1.55

The recorded log10 of TGI with RXF 393 renal for `Nc1nc(Nc2ccc(Cl)cc2)sc1C(=O)c1cccs1` was 1.62

* * *

- Tested on: KM12 colon
- Measurement Protocol: NCI tumour cell line growth inhibition, 48 h
Test Readout: TGI (µM)
Give the value, in units of µM, as a plain number.

Field: example entries. Status: answers known.
O=C(Nc1ccc(Cl)c(Cl)c1)Nc1ccccc1O : 13.7
O=C(CCCN1CCC2(CC1)C(=NC1CCCCC1)NC(=O)N2c1ccccc1)c1ccc(F)cc1 : 42.5
Cc1c2ccncc2c(C)c2c1[nH]c1ccccc12 : 2.36
O=C1CCCc2cc3c(cc21)CC1(C3)Cc2ccc3c(c2C1)C(=O)CCC3 (stereo unspecified) : 37.9

Readout TGI for `O=C(CNCc1ccccc1)Oc1c(Cl)c(Cl)c(Cl)c(Cl)c1Cl` , test system KM12 colon, was 51.1

* * *

- Tested on: SN12C renal
- Measurement Protocol: NCI tumour cell line growth inhibition, 48 h
// values below are reported TGI

Examples with answers:
O=C(CNCc1ccccc1)Oc1c(Cl)c(Cl)c(Cl)c(Cl)c1Cl : > 100 µM
O=C(N/N=C/c1ccc([N+](=O)[O-])o1)c1ccc(O)cc1 : > 100 µM
C/C(=N\NC(=S)N1CC2CCC(CC2)C1)c1ccccn1 : 2.03 µM
CCOC(=O)/C(=C/c1cccc(C#N)c1)N(CC)CC : > 100 µM
Nc1nc(N)c2cc(CNc3ccc(C(=O)NC(CC(=O)O)C(=O)O)c(Cl)c3)ccc2n1 (stereo unspecified) : > 500 µM

Just so you know, measured TGI for O=C1CCCc2cc3c(cc21)CC1(C3)Cc2ccc3c(c2C1)C(=O)CCC3 (stereo unspecified) came out at > 100 µM

Value of measured TGI for the entry O=C1CS(=O)C23c4cc5ccccc5n4CCC2CCCN13 (stereo unspecified) : > 100 µM

Sample CC1=CC(=O)C(C(O)(C(F)(F)F)C(F)(F)F)C(C)(C)C1 (stereo unspecified) ; TGI observed: > 10 µM

Briefly, TGI measured for COc1c(O)c(O)cc2c1-c1ccc(OC)c(=O)cc1C(NC(C)=O)CC2 (stereo unspecified) : 42.5 µM

* * *

- Tested on: K-562 leukemia
- Measurement Protocol: NCI tumour cell line growth inhibition, 48 h
Test Readout: TGI

O=C(CCc1cccc(O)c1)NCCCNC(=O)CCc1cccc(O)c1 : > 100 µM
CC(C(=O)n1c2ccccc2c2ccccc21)N(c1ccccc1)c1ccccc1 (stereo not given) : 40.7 µM
COC(=O)C1(Cc2ccc3c(c2)CCC3)Cc2ccccc2C1=O (stereo not given) : 48.4 µM
Nc1nc(Nc2ccccc2)sc1C(=O)c1c[nH]c2ccccc12 : 56.7 µM
O=S1(=O)OCCOS(=O)(=O)C1Cl : > 100 µM
CCCCCc1ccc(S(=O)(=O)Nc2cc(-c3csc(NC(C)=O)n3)ccc2N2CCN(C)CC2)cc1 : 3.4 µM
N#CCCN(CCC#N)c1ccc(/C=C2\SC(=S)NC2=O)cc1Br : > 100 µM
O/C(=C\c1nc2ccccc2nc1NC12CC3CC(CC(C3)C1)C2)c1ccc(Br)cc1 : > 10 µM

Notebook: COC(=O)c1cc2c(cc1CC(Cc1ccc3c(c1)CCC3)C(=O)OC)CCC2 (stereo not given) , TGI read as > 100 µM

`Cc1cc(C)n(-c2nnc3n2N=C(c2ccc(-c4ccccc4)cc2)CS3)n1` has a reported TGI of > 100 µM

* * *

- Test system: UACC-62 melanoma
- Measurement Protocol: NCI tumour cell line growth inhibition, 48 h; in the data active means GI50 below about 0.43 µM; inactive means the rest
Returns: one label drawn from active, inactive

For orientation, consider the following solved cases.
Cn1cc(-c2ccc(-c3cncc(Cl)c3N3CCC4(CCNC4=O)CC3)cc2)cn1 : inactive
Nc1ccccc1SC1CC(=O)N(c2ccc(Cl)c(Cl)c2)C1=O (stereo not drawn) : inactive

### Prompt Recorded test call requested for COC(C(=O)[C@@H](O)[C@@H](C)O)[C@@H]1Cc2cc3cc(O[C@H]4C[C@@H](O[C@H]5C[C@@H](O)[C@H](O)C(C)O5)[C@H](O)C(C)O4)c(C)c(O)c3c(O)c2C(=O)[C@H]1O[C@H]1C[C@@H](O[C@H]2C[C@@H](O[C@H]3C[C@@H](O)[C@H](OC)C(C)O3)[C@@H](O)C(C)O2)[C@H](O)C(C)O1 (stereo partly drawn)
### Response active

### Prompt // return assay outcome for `c1csc(-c2c3ccc(=[N+]4CCCCC4)cc-3oc3cc(N4CCCCC4)ccc23)c1`
### Response active

### Prompt State the result this test recorded for `O=C1C(Cl)=C(Nc2ccccc2O)C(=O)N1Cc1ccccc1` .
### Response inactive

### Prompt Recorded test call requested for Nc1nc(N)c2cc(CNc3ccc(C(=O)NC(CC(=O)O)C(=O)O)c(Cl)c3)ccc2n1 (stereo not drawn)
### Response active

### Prompt Please share the test call associated with `CCCCCCCCCCN1CCC(N2CCCCC2)CC1` .
### Response inactive

### Prompt Hi, sorry to bother you, what did the test record for C[C@H]1CCC/C=C/[C@@H]2C[C@H](O)C[C@H]2[C@H](O)[C@@H](SCC(O)CO)CC(=O)O1 (stereo partly drawn) ?
### Response inactive
